All values here come from patent US10562912B2.

- System: LNCaP
- test description: Cell growth inhibition assay, prostate cancer cell line LNCaP (medium with 10 ng/mL IL-6)
- Type: cell-based
- test context: Homo sapiens, medium supplemented with 10 ng/mL of IL-6, 10,000 cells/well
value type: IC50 (µM)

I: CS(=O)(=O)Nc1ccc2cc(C(=O)Nc3cccc(-c4ccc(F)cc4C(F)(F)F)c3)[nH]c2c1
II: CC(C)(c1cc(Br)cc(NC(=O)c2cc3cc(NS(C)(=O)=O)ncc3s2)c1)c1cc(OC(F)(F)F)cc(OC(F)(F)C(F)F)c1
III: CC(C)(c1ccc(Cl)cc1)c1cc(Cl)cc(NC(=O)c2cc3cc(Cl)c(NS(C)(=O)=O)cc3s2)c1
IV: CC(C)(c1cc(Cl)cc(NC(=O)c2cc3cc(NS(C)(=O)=O)ccc3s2)c1)c1cc(OCCN2CCOCC2)cc(OC(F)(F)F)c1
Qu. Rank descending by IC50. The reply should contain the labels ordered as requested.
Ans. I, III, IV, II

I: CC(C)Oc1cc(OC(F)(F)F)cc(C(C)(C)c2cc(Cl)cc(NC(=O)c3cc4c(F)c(NS(C)(=O)=O)ccc4s3)c2)c1
II: CC(C)Oc1cc(CN2CCN(c3noc(C(C)C)n3)CC2)cc(C(C)(C)c2cc(F)cc(NC(=O)c3cc4cc(NS(C)(=O)=O)ccc4s3)c2)c1
III: CC(C)(c1cc(Cl)cc(NC(=O)c2cc3cc(NS(C)(=O)=O)c(Cl)cc3s2)c1)N1CCCCC1
Qu. Sort entries by IC50 from minimum to maximum value. API: response body holds the labels in the requested order.
Ans. I, III, II

1: CNS(=O)(=O)Nc1ccc2cc(C(=O)Nc3cccc(-c4ccc(F)cc4F)c3)[nH]c2c1
2: CN(c1ccc2cc(C(=O)Nc3cccc(-c4ccc(F)cc4F)c3)[nH]c2c1)S(C)(=O)=O
3: CC(C)(c1ccc(F)cc1)c1cc(Cl)cc(NC(=O)c2cc3cc(NS(C)(=O)=O)ccc3s2)c1
Qu. Sort (3 compounds) by IC50: min first. // format: requested-order list of labels
Ans. 2, 3, 1
(2: 0.014 µM, 3: 0.37 µM, 1: 2.8 µM)
